Origin of measurements: the supplement of paper PMC9732359

Assay: protein stability index of a GFP-peptide fusion (yeast GPS) (PSI 1-4); higher = more stable; sorted into four equal gates, so the index is relative within each strain
Details: doa10∆
Tick YES if protein stability index is 3 or greater. Tick NO if protein stability index is less than 3.

Look over these answered cases.
1. LRNNLNSLIEEINERSE [YCG1]; YES
2. ERHQKQLNEKLVGRLRK [YCS4]; YES
3. QIRDVMERFSVLCNSNI [RRP6]; NO
4. PTFTFGSSALADNKEDV [YLR335W/NUP2]; YES

query: Given AARVDIGQIIFSVRTKD [RPL10] , state whether its protein stability index is at least 3.
result: NO

query: Another sequence: YEMVIREKNALKRLAWQ [ISW2]
result: NO

---

Assay: protein stability index of a GFP-peptide fusion (yeast GPS) (PSI 1-4); higher = more stable; sorted into four equal gates, so the index is relative within each strain
Conditions: ubr1∆
Overview of reported protein stability index across a group of sequences:
Respond numerically, and do not add a unit to the figure.

Completed entries (count: 3):
1. TQNSRHYMVHEALNLLK [LIN1]; 3.07
2. RLELAGQLISLLFEDLF [RET1]; 2.91
3. PVRPVRVRHEDVETVKR [RPC53]; 3.04

Next sequence, protein stability index to be filled in.
query: What measured protein stability index goes with THPHAADGSSYMEQGNN [SKI6] ?
result: 3.07

---

Assay: protein stability index of a GFP-peptide fusion (yeast GPS) (PSI 1-4); higher = more stable; sorted into four equal gates, so the index is relative within each strain
Details: doa10∆
Overview of reported protein stability index across a group of sequences:
Respond numerically, and do not add a unit to the figure.

query: What measured protein stability index goes with VSLPEGSFKRVKPQYDE [BRR2] ?
result: 3.16

---

Test: protein stability index of a GFP-peptide fusion (yeast GPS) (PSI 1-4); higher = more stable; sorted into four equal gates, so the index is relative within each strain
Conditions: san1∆
OBSERVABLE: protein stability index

1) ALVFAALEHLKNLSLLA [SRP68]; 3.07
2) GSLKLPNCPRPNMSICI [RPL1A]; 2.95
3) SPIGFTNSPQISVTRQV [SMC2]; 2.95

query: What measured protein stability index goes with SELAGDEELEAEQIDVF [PRP8] ?
result: 3.07

query: Another sequence: HARARGPRAVLTRQPTE [RET1]
result: 3.08

query: Another sequence: QDIKKAKRVENFNSSAP [DSN1]
result: 3.02

query: Another sequence: SNESQNGKDSEIMYTGV [SMC3]
result: 3.03

query: Another sequence: NEQAARAANQGALPPDL [CYT1]
result: 2.94

query: Another sequence: TQATSEDGTSASFQIVE [RPC19]
result: 3.05

query: Another sequence: KERIIRAFLIEEQKIVK [RPL34A]
result: 2.04

---

Overview of reported protein stability index across a group of sequences:
Assay: protein stability index of a GFP-peptide fusion (yeast GPS) (PSI 1-4); higher = more stable; sorted into four equal gates, so the index is relative within each strain
Conditions: doa10∆

Completed entries (count: 2):
1) KLQLGQLYESGNPVNDA [COR1]; 3.03
2) QPSQQPQQAQQQPNPLH [GAL11]; 2.91

Next sequence, protein stability index to be filled in.
query: What measured protein stability index goes with LKYHDFLRKATAFNKTR [RPL16B] ?
result: 2.98

---

Test: protein stability index of a GFP-peptide fusion (yeast GPS) (PSI 1-4); higher = more stable; sorted into four equal gates, so the index is relative within each strain
Details: san1∆
Overview of reported protein stability index across a group of sequences:
Respond numerically, and do not add a unit to the figure.

Completed entries (count: 4):
1. LRNNLNSLIEEINERSE [YCG1]; 2.96
2. LPSAVDGENDKKEATKP [YLR335W/NUP2]; 3.05
3. NGNTSSKTVVTLSEPVQ [FAS1]; 2.96
4. VATEPLLDILVKGETRI [PRP8]; 2.94

Next sequence, protein stability index to be filled in.
query: What measured protein stability index goes with FDDSDITKFALFAESHD [YML103C/NUP188] ?
result: 2.92

---

Assay: protein stability index of a GFP-peptide fusion (yeast GPS) (PSI 1-4); higher = more stable; sorted into four equal gates, so the index is relative within each strain
Settings: doa10∆
Class (by protein stability index) -- band A = under 2, band B = from 2 up to 3, band C = 3 and over

Look over these answered cases.
1) DQAELPNNASSHISASA [SNF2]; band A
2) LGDMAVCFNNLVDENTD [YCS4]; band B
3) CESCSTILCTPTGGKAK [RPS27A]; band A
4) DKLKVYKQAMNETSEQL [SNF5]; band C

query: Field: class (protein stability index) — entry: AFFHLFASLRVLPDADV [YJL039C/NUP192]
result: band A

query: Another sequence: NLRLLVEENRVRYTTSV [DLS1]
result: band B

---

Assay: protein stability index of a GFP-peptide fusion (yeast GPS) (PSI 1-4); higher = more stable; sorted into four equal gates, so the index is relative within each strain
Conditions: doa10∆
Overview of reported protein stability index across a group of sequences:
Respond numerically, and do not add a unit to the figure.

Completed entries (count: 3):
1) LLQEGGSLSGNSSSMEE [ESC2]; 2.97
2) GKGESVIFNDNVTETYS [SIR3]; 3.08
3) KDAISFIKEIHKSIELI [YCS4]; 2

Next sequence, protein stability index to be filled in.
query: What measured protein stability index goes with MENIKKSIDSKTPEEVE [ISW2] ?
result: 2.92

---

Overview of reported protein stability index across a group of sequences:
Test: protein stability index of a GFP-peptide fusion (yeast GPS) (PSI 1-4); higher = more stable; sorted into four equal gates, so the index is relative within each strain
Details: doa10∆

Completed entries (count: 2):
1. RLELAGQLISLLFEDLF [RET1]; 2.65
2. LGIALIALGEDIGKEMS [RPN1]; 3.01

query: What measured protein stability index goes with DPLLAGLGETSGDNHTQ [RPT4] ?
result: 2.77

query: Another sequence: AQQDSTNVRLYSLLLAS [ECM29]
result: 2.27

query: Another sequence: IASDGSECIVSIKSKVV [RRP42]
result: 3.1

query: Another sequence: RSWNEPSKSQTNFKEEI [YML103C/NUP188]
result: 2.9

---

Overview of reported protein stability index across a group of sequences:
Assay: protein stability index of a GFP-peptide fusion (yeast GPS) (PSI 1-4); higher = more stable; sorted into four equal gates, so the index is relative within each strain
Conditions: doa10∆

1) GNLIGVDPFDSDEEESV [SNU114]; 3.03
2) RYVNLLGVTYSSPTLAT [PRE4]; 1.12
3) SMILGVAASIIPFPDHN [RPB2]; 2.21
4) KNFSPTKRVEKPQLKFK [RRP6]; 2.33
5) QALDISKKGKPTVNKKP [SRP72]; 2.59

Next sequence, protein stability index to be filled in.
query: What measured protein stability index goes with HTLMSFAGEAGDTVQFA [PRE1] ?
result: 3.01

---

Experiment: protein stability index of a GFP-peptide fusion (yeast GPS) (PSI 1-4); higher = more stable; sorted into four equal gates, so the index is relative within each strain
Settings: pdr5∆
Tick label 1 if protein stability index is 3 or greater. Tick label 0 if protein stability index is less than 3.

1. LDSQETPSTEESRAQNV [SWI3]; label 0
2. NEISRNGTMINEVIDKL [PCI8]; label 0
3. NYLKYLEYWCNPPYSQC [SOH1]; label 0
4. SGDREVQRTMLELLNQL [RPT5]; label 0
5. LRRGNYAQRIGSGAPVY [HTA1]; label 0
6. SESDLDEDKNFPRSRSR [ESC2]; label 1
7. STIITKAINQELEDVAV [YCS4]; label 1
8. VKVHMDSETSDPNEVEI [DIS3]; label 1

query: Given NRKVLQALEKIGIVEIS [RPS19A] , state whether its protein stability index is at least 3.
result: label 0

query: Another sequence: NDFTTKLINIKKFDISN [MED1]
result: label 0

---

Test: protein stability index of a GFP-peptide fusion (yeast GPS) (PSI 1-4); higher = more stable; sorted into four equal gates, so the index is relative within each strain
Conditions: san1∆
Overview of reported protein stability index across a group of sequences:

Completed entries (count: 2):
1) KVFSLDPQYLVDDLRPE [ASC1]; 3.04
2) DAYYDLELRNSVMDDIL [PRP8]; 2.93

query: What measured protein stability index goes with NNTNNNNTNTGASGVDD [SWI1] ?
result: 3.05

---

Assay: protein stability index of a GFP-peptide fusion (yeast GPS) (PSI 1-4); higher = more stable; sorted into four equal gates, so the index is relative within each strain
Details: ubr1∆
Tick Fulfilled if protein stability index is 3 or greater. Tick Not fulfilled if protein stability index is less than 3.

Look over these answered cases.
1. MQANTNALRRNLLKDEG [SSN3]; Fulfilled
2. SNTMYSVRLFSFLDPLN [YJL039C/NUP192]; Not fulfilled
3. EINPFLLGTMAGGAADC [PRE2]; Not fulfilled

Alright, here's another sequence for you.
query: Given TQVALNESEKDQWLEEY [UBP6] , state whether its protein stability index is at least 3.
result: Not fulfilled
